Every entry's value here was drawn from the supplement of paper PMC12764529.

folding stability dG unfold for assorted sequences
Assay: folding stability dG unfold (combined trypsin and chymotrypsin); higher = more stable
Number in kcal/mol, nothing else.

Below: 2 sequences and their reported folding stability dG unfold.
[
  {
    "sequence.input": "SAGGSAGGSKKKVKVEIVEYDPETKKVTVRVTVDGKEYEFTFSTPEELEAAAKAGKIDEITLTSAGGSAGGS [r12_421_TrROS_Hall]",
    "measurement.units": "kcal/mol",
    "folding stability dG unfold": 2.26
  },
  {
    "sequence.input": "SAGGSAGGSMPVITVDPSIKEFKDEKGNKYLLTPVTVTLPNGVPVTVVYTTDPSTGKTTPATSGSAGGSAGG [r6_298_JUSTAS]",
    "measurement.units": "kcal/mol",
    "folding stability dG unfold": 0.62
  }
]

Entry under review: SAGGSAGGSAANVTREPRFDPSTNLVRTLVRFPDGSVREEILEITKNPDGTLTYKRFERPPSAGGSAGGSAG [r3_474_JUSTAS] . Reported folding stability dG unfold? 1.19

Entry under review: SAGGSAGGMKVIEIDLPDGSKLKIVIYKDGTLPAYLPEGNKVIVLEIDKNGKIKSVKVFDAKDISAGGSAGG [r6_81_TrMRF] . Reported folding stability dG unfold? 3.21
